# System: BGC-823
# assay-info: Cytotoxicity in human BGC823 cells assessed as reduction in cell viability incubated for 72 hrs by MTT assay
# Assay type: functional, cell-based
# assay-context: BGC-823, 72 h
// reported IC50 for each item listed

item-smiles	relation-qualifier	IC50, µM
C[C@H]1[C@H](C)CC[C@]2(C(=O)OCCN3CCCC3)CC[C@]3(C)C(=CC[C@@H]4[C@@]5(C)CC[C@H](O)C(C)(C)[C@@H]5CC[C@]43C)[C@H]12	=	4.5
CCCC(=O)O[C@H]1CC[C@]2(C)[C@H]3CC=C4[C@@H]5CC(C)(C)CC[C@]5(C(=O)n5ccc(=O)[nH]c5=O)CC[C@@]4(C)[C@]3(C)CC[C@H]2C1(C)C	=	0.22
Cc1nc(C)c(COC(=O)[C@]23CCC(C)(C)C[C@H]2C2=CC[C@@H]4[C@@]5(C)CC[C@H](OC(=O)[C@@H]6CCCN6)C(C)(C)[C@@H]5CC[C@@]4(C)[C@]2(C)CC3)nc1C	=	4.97
C[C@H]1[C@H](C)CC[C@]2(C(=O)OCCCCN3CCOCC3)CC[C@]3(C)C(=CC[C@@H]4[C@@]5(C)CC[C@H](O)C(C)(C)[C@@H]5CC[C@]43C)[C@H]12	=	6.5
Cc1nc(C)c(COC(=O)[C@]23CCC(C)(C)C[C@H]2C2=CC[C@@H]4[C@@]5(C)CC[C@H](OC(=O)[C@H](C)N)C(C)(C)[C@@H]5CC[C@@]4(C)[C@]2(C)CC3)nc1C	=	4.47
C[C@H]1[C@H](C)CC[C@]2(C(=O)OCCBr)CC[C@]3(C)C(=CC[C@@H]4[C@@]5(C)CC[C@H](O)C(C)(C)[C@@H]5CC[C@]43C)[C@H]12	=	12.4
C[C@H]1[C@H](C)CC[C@]2(C(=O)OCCCCBr)CC[C@]3(C)C(=CC[C@@H]4[C@@]5(C)CC[C@H](O)C(C)(C)[C@@H]5CC[C@]43C)[C@H]12	=	10
C[C@H]1[C@H](C)CC[C@]2(C(=O)OCCCCN3CCCC3)CC[C@]3(C)C(=CC[C@@H]4[C@@]5(C)CC[C@H](O)C(C)(C)[C@@H]5CC[C@]43C)[C@H]12	=	7.2
Cc1nc(C)c(COC(=O)[C@]23CCC(C)(C)C[C@H]2C2=CC[C@@H]4[C@@]5(C)CC[C@H](OC(=O)[C@@H](N)CO)C(C)(C)[C@@H]5CC[C@@]4(C)[C@]2(C)CC3)nc1C	=	4.89
Cc1nc(C)c(COC(=O)[C@]23CCC(C)(C)C[C@H]2C2=CC[C@@H]4[C@@]5(C)CC[C@H](O)C(C)(C)[C@@H]5CC[C@@]4(C)[C@]2(C)CC3)nc1C	>	30
